Reference source for all entries: patent US9040527B2

molecular target: PLK1 (Homo sapiens); assay: In vitro PLK1 ELISA assay (biochemical); design: purchased Cell Signalling 7728; details: ELISA, CHK2-derived peptide substrate; read-out: PLK1 IC50 (μM) biochemical assay
Sequence (P53350 whole entry): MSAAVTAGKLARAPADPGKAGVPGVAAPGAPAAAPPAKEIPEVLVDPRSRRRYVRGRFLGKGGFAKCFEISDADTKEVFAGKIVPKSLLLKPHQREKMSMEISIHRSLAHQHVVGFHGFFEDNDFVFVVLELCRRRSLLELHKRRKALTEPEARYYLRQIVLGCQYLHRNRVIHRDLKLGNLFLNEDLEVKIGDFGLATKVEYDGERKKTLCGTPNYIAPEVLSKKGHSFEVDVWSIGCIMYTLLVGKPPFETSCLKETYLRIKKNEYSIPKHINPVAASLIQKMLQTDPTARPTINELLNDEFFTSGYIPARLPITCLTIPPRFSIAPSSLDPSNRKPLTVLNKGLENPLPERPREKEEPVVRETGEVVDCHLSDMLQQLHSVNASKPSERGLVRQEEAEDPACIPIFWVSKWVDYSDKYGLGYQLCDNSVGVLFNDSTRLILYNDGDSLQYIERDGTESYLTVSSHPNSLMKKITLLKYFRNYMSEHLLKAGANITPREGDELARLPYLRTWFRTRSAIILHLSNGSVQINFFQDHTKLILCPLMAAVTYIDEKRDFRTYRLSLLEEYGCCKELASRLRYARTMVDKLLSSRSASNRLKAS
attributeMeasured: IC50

[Q] Which measured IC50 belongs to CN1CCN(c2cc(Nc3ncc(F)c(Nc4ccc5c(n4)NC(=O)CO5)n3)cc(C(F)(F)F)c2)CC1 , tested on PLK1 (Homo sapiens)?
[A] < 0.5 µM

[Q] Value wanted: IC50 (PLK1 (Homo sapiens)) of entry CCN1C(=O)COc2ccc(Nc3nc(Nc4ccc(N5CCN(C)CC5)cc4)ncc3Cl)cc21
[A] 0.5 to 5 µM

[Q] For the record CN1CC2CC1CN2c1cccc(Nc2ncc(F)c(Nc3ccc4c(n3)NC(=O)CO4)n2)c1 (stereo not shown) , what value of IC50 is listed for PLK1 (Homo sapiens)?
[A] < 0.5 µM

[Q] API: value(readout=IC50, system=PLK1 (Homo sapiens)) for record Cc1cc(Nc2ncc(F)c(Nc3ccc4c(n3)N(CC3CC3)C(=O)CO4)n2)ccc1N1CCN(C)CC1
[A] 0.5 to 5 µM

[Q] Provide the documented IC50 with PLK1 (Homo sapiens) as the system for CCCN1CCOc2ccc(Nc3nc(Nc4ccc(N5CC6CC5CN6C(C)=O)c(C)c4)ncc3C)nc21 (stereo not shown)
[A] 0.5 to 5 µM

[Q] Please state recorded IC50 (tested on PLK1 (Homo sapiens)) of COc1ccc(CN2C(=O)COc3ccc(Nc4nc(Nc5cccc(N6CCN(C)CC6)c5)ncc4C)nc32)cc1
[A] 5 to 10 µM

[Q] Checklist item: IC50 tested on PLK1 (Homo sapiens), entry CCOc1ccc(N2CCN(C)CC2)cc1Nc1ncc(F)c(Nc2ccc3c(n2)NCCO3)n1 , value?
[A] < 0.5 µM
